procedureText: single oral dose pharmacokinetic study in healthy and NASH subjects
Assay type: in vivo, human
appliedConditions: human, plasma, po, 50 mg, 50 mg single oral dose, NASH; read-out: Vz/F, Mean
measure: Vd/F (L)
Give bare numbers, in L.

Just so you know, measured Vd/F for C[C@H](CCCC(C)(C)O)[C@H]1CC[C@H]2[C@@H]3CC=C4C[C@@H](OS(=O)(=O)[O-])CC[C@]4(C)[C@H]3CC[C@]12C.[Na+] [25HC3S sodium, 25-hydroxycholesterol-3-sulfate sodium] came out at 203

====

procedureText: Phase 1b 4-week oral dosing study in NASH patients: pharmacokinetics
Type: in vivo, human
appliedConditions: both sexes, human, plasma, oral; 50 mg QD (n = 22); read-out: Cmax, mean (standard deviation)
measure: Cmax (ng/mL)
Answers are plain numbers, in ng/mL.

Lookup result for C[C@H](CCCC(C)(C)O)[C@H]1CC[C@H]2[C@@H]3CC=C4C[C@@H](OS(=O)(=O)O)CC[C@]4(C)[C@H]3CC[C@]12C [25HC3S, 25-hydroxycholesterol-3-sulfate] ; measured Cmax: 79.1

====

procedureText: single oral dose pharmacokinetic study in healthy and NASH subjects
Format: in vivo, human
appliedConditions: human, plasma, oral, 200 mg, across both healthy and NASH subject groups, 50 and 200 mg; read-out: T1/2, range of mean values
measure: half-life

C[C@H](CCCC(C)(C)O)[C@H]1CC[C@H]2[C@@H]3CC=C4C[C@@H](OS(=O)(=O)O)CC[C@]4(C)[C@H]3CC[C@]12C [25HC3S, 25-hydroxycholesterol-3-sulfate] yielded half-life of 1.67 to 2.51 h

====

procedureText: Phase 1b 4-week oral dosing study in NASH patients: pharmacokinetics
Assay type: in vivo, human
appliedConditions: both sexes, human, plasma, oral; 50 mg QD (n = 22); read-out: Tmax, mean (standard deviation)
measure: Tmax (h)
One number for each entry, in h.

Short answer for C[C@H](CCCC(C)(C)O)[C@H]1CC[C@H]2[C@@H]3CC=C4C[C@@H](OS(=O)(=O)O)CC[C@]4(C)[C@H]3CC[C@]12C [25HC3S, 25-hydroxycholesterol-3-sulfate] : Tmax was 2.4

====

procedureText: single oral dose pharmacokinetic study in healthy and NASH subjects
Format: in vivo, human
appliedConditions: human, plasma, po, 50 mg, 50 mg single oral dose, Healthy; read-out: AUC0-last, Mean
measure: AUC(0-t) (ng·h/mL)
One number for each entry, in ng·h/mL.

The recorded AUC(0-t) for entry C[C@H](CCCC(C)(C)O)[C@H]1CC[C@H]2[C@@H]3CC=C4C[C@@H](OS(=O)(=O)[O-])CC[C@]4(C)[C@H]3CC[C@]12C.[Na+] [25HC3S sodium, 25-hydroxycholesterol-3-sulfate sodium] equals 477

====

procedureText: single oral dose pharmacokinetic study in healthy and NASH subjects
Format: in vivo, human
appliedConditions: human, plasma, po, 200 mg, 200 mg single oral dose, NASH; read-out: T1/2, Mean (converted)
measure: half-life (h)
One number for each entry, in h.

Reported half-life ( C[C@H](CCCC(C)(C)O)[C@H]1CC[C@H]2[C@@H]3CC=C4C[C@@H](OS(=O)(=O)[O-])CC[C@]4(C)[C@H]3CC[C@]12C.[Na+] [25HC3S sodium, 25-hydroxycholesterol-3-sulfate sodium] ) = 2.51

====

procedureText: single oral dose pharmacokinetic study in healthy and NASH subjects
Type: in vivo, human
appliedConditions: human, plasma, po, 200 mg, 200 mg single oral dose, NASH; read-out: AUCinf, Mean
measure: AUC(0-inf) (ng·h/mL)
Answers are plain numbers, in ng·h/mL.

Lab book: AUC(0-inf) of C[C@H](CCCC(C)(C)O)[C@H]1CC[C@H]2[C@@H]3CC=C4C[C@@H](OS(=O)(=O)[O-])CC[C@]4(C)[C@H]3CC[C@]12C.[Na+] [25HC3S sodium, 25-hydroxycholesterol-3-sulfate sodium] noted as 1430

====

procedureText: single oral dose pharmacokinetic study in healthy and NASH subjects
Type: in vivo, human
appliedConditions: human, plasma, po, 200 mg, 200 mg single oral dose, Healthy; read-out: AUCinf, Geometric Mean
measure: AUC(0-inf)
Give the value; after it, write the unit.

Lab book: AUC(0-inf) of C[C@H](CCCC(C)(C)O)[C@H]1CC[C@H]2[C@@H]3CC=C4C[C@@H](OS(=O)(=O)[O-])CC[C@]4(C)[C@H]3CC[C@]12C.[Na+] [25HC3S sodium, 25-hydroxycholesterol-3-sulfate sodium] noted as 1180 ng·h/mL

====

procedureText: Phase 1b 4-week oral dosing study in NASH patients: pharmacokinetics
Type: in vivo, human
appliedConditions: both sexes, human, plasma, oral; 300 mg BID (n = 21); read-out: Cmax, mean (standard deviation)
measure: Cmax (ng/mL)
Give bare numbers, in ng/mL.

C[C@H](CCCC(C)(C)O)[C@H]1CC[C@H]2[C@@H]3CC=C4C[C@@H](OS(=O)(=O)O)CC[C@]4(C)[C@H]3CC[C@]12C [25HC3S, 25-hydroxycholesterol-3-sulfate] has a reported Cmax of 430
